Hey, just so you know, these numbers are from ChEMBL document CHEMBL1208714.

assay: Inhibition of maize ACC; design: species or system Zea mays
pIC50: −log10 of the molar value.
So basically: pIC50 at 7 or higher? That is true (1). Lower than 7? That is false (0).

[
  {
    "compound": "CCO/N=C(\\CC)C1=C(O)CC(c2c(C)cc(C)cc2C)CC1=O (stereo unspecified) [TRALKOXYDIM]",
    "answer.label": "false (0)"
  },
  {
    "compound": "CCSC(C)CC1CC(=O)C(/C(CC)=N/OC/C=C/Cl)=C(O)C1 (stereo unspecified) [CLETHODIM]",
    "answer.label": "true (1)"
  },
  {
    "compound": "CCCC(=O)c1c(C)cc(C)c(C2CC(=O)C(/C(CC)=N/OCC)=C(O)C2)c1C (stereo unspecified) [BUTROXYDIM]",
    "answer.label": "false (0)"
  },
  {
    "compound": "CCOC(=O)C(C)Oc1ccc(Oc2cnc3cc(Cl)ccc3n2)cc1 (stereo unspecified) [QUIZALOFOP ETHYL ESTER]",
    "answer.label": "false (0)"
  },
  {
    "compound": "CC/C(=N\\OC/C=C/Cl)C1=C(O)CC(C2CCOCC2)CC1=O (stereo unspecified) [TEPRALOXYDIM]",
    "answer.label": "false (0)"
  },
  {
    "compound": "CC(Oc1ccc(Oc2cnc3cc(Cl)ccc3n2)cc1)C(=O)O (stereo unspecified) [QUIZALOFOP]",
    "answer.label": "true (1)"
  }
]
